Below, each of the molecules is paired with its reported growth value.
Test system: K-562 leukemia
assay details: NCI-60 one-dose screen, 48 h (100 = growth as untreated, 0 = no growth, -100 = all killed)
experimental setup: 10 µM unless noted
About 83,000 compounds went through this panel and 20% of them were active in at least one assay; those are over-represented in the sample as a whole.
readout label: growth (%)

| molecule | measured on | observed value |
| --- | --- | --- |
| N#Cc1c(-c2ccc(F)cc2)nc(N=Nc2c(O)[nH]c3ccccc23)nc1N1CCOCC1 | K-562 leukemia | 91.8 |
| CC(=O)Oc1ccc(O)cc1 | K-562 leukemia | 96.7 |
| C#C[C@@]1(O)[C@@H](CO)O[C@@H](n2cc(Br)c3c(N)ncnc32)[C@@H]1O | K-562 leukemia | 5.03 |
| COC(=O)/C=C1\SC(=Nc2ccc(C(F)(F)F)cc2)N(CCc2c[nH]c3ccccc23)C1=O | K-562 leukemia | -0.591 |
| Cc1cc(C)c2nc(Nc3nc(C)c(C)c(=O)[nH]3)nc(C)c2c1 | K-562 leukemia | 12.2 |
| Cc1cc(NC(=O)CNc2nc(Oc3ccc(F)cc3)nc(-c3ccc(F)cc3)n2)ccc1Cl | K-562 leukemia | 89.5 |
| NC(=O)c1ccc(C2C3=C(CCCC3=O)OC3=C2C(=O)c2ccccc2C3=O)cc1 (centres undefined) | K-562 leukemia | 5.5 |
| CCSc1nc(Cl)c(C#N)c(-c2ccc(F)cc2)n1 | K-562 leukemia | 37.7 |
| C/C(=N/Nc1nc2ccccc2n1C)c1ccccn1 | K-562 leukemia | 5.81 |
| CCCCC(=O)Nc1c(C(=O)Nc2ccccc2)sc2nc3c(cc12)C(OC(=O)CCCC)CCC3 (centres undefined) | K-562 leukemia | 85.3 |
| CN(C)CCCn1c2c(c3cc(-c4ccco4)ccc3c1=O)C(=O)c1ccccc1-2 | K-562 leukemia | -75.1 |
| Cc1ccc(C2CC(c3ccc(Nc4nc(NCCO)nc(NCCO)n4)cc3)=NN2c2ccc(Cl)cc2)cc1 (centres undefined) | K-562 leukemia | 14.9 |
| CCCCCCCCCCCCCC1=NCC[N+]1(CCO)Cc1ccccc1 (centres undefined) | K-562 leukemia | -50.9 |
| CC(=O)c1ccc(NC(=O)CSc2nnc(-c3cc(-c4ccc(Cl)cc4)nc4ccccc34)o2)cc1 | K-562 leukemia | 63 |
| C#C[C@@]1(O)[C@@H](CO)O[C@@H](n2cc(-c3ccco3)c3c(N)ncnc32)[C@@H]1O | K-562 leukemia | 86.1 |
| COc1ccc2nc(-c3ccc(OC)c(OC)c3)cc(-c3nnc(SCC(=O)Nc4ccc(/C(C)=N\O)cc4)n3-c3ccccc3)c2c1 | K-562 leukemia | 63.5 |
| O=C(Nc1ccccc1)NS(=O)(=O)c1c[nH]c(=S)[nH]c1=O | K-562 leukemia | 103 |
| C=C(C)[C@@H]1CC[C@]2(C(=O)n3ccnc3)CC[C@]3(C)[C@H](CC[C@@H]4[C@@]5(C)CCCNC(C)(C)[C@@H]5CC[C@]43C)[C@@H]12 | K-562 leukemia | -38.4 |
| CCC[S@@](=O)c1ccc2nc(NC(=O)OC)[nH]c2c1 | K-562 leukemia | 40.9 |

----------
Test system: IGROV1 ovarian
assay details: NCI-60 one-dose screen, 48 h (100 = growth as untreated, 0 = no growth, -100 = all killed)
experimental setup: 10 µM unless noted
About 83,000 compounds went through this panel and 20% of them were active in at least one assay; those are over-represented in the sample as a whole.
Below, each of the molecules is paired with its reported growth value.

| molecule | unit info | growth |
| --- | --- | --- |
| O=C(Nc1nc(-c2ccccc2Cl)cs1)c1cc(-c2ccc(Br)cc2)nc2ccccc12 | % | 61.4 |
| Cc1c(Cl)cccc1NC(=O)c1sc2nc3c(cc2c1N)COCC3 | % | 45.8 |
| COc1ccc(C2N(c3cc(OC)c(OC)c(OC)c3)C(=O)C2(F)F)cc1F (stereo not given) | % | 44.2 |
| CN1CCN(/C=C2\CC(C(=O)NCc3ccc(Cl)cc3Cl)NC2=O)CC1 (stereo not given) | % | 109 |
| COc1ccc(Cl)c([N+](=O)[O-])c1 | % | 108 |
| C=C(C)[C@@H]1CC[C@]2(C(=O)NCCCO)CC[C@]3(C)[C@H](CC[C@@H]4[C@@]5(C)CCCNC(C)(C)[C@@H]5CC[C@]43C)[C@@H]12 | % | 75.9 |
| COc1cc(C2=N/C(=C\c3cc4ccccc4nc3Oc3ccccc3)C(=O)N2C(=N)N)cc(OC)c1OC | % | 82.1 |
| CN(C)CCCn1c2c(c3cc(-c4cccc(S(N)(=O)=O)c4)ccc3c1=O)C(=O)c1ccccc1-2 | % | 66.7 |
| COc1ccc(Nc2cc(NC(=O)CNc3cc(OC)c(Cl)c(OC)c3Cl)ncn2)cc1 | % | 74.2 |
| O=C(CN1N=C(c2ccc(F)cc2)CCC1=O)Nc1nc2ccccc2s1 | % | -49.5 |

----------
Test system: SNB-19 CNS
assay details: NCI-60 one-dose screen, 48 h (100 = growth as untreated, 0 = no growth, -100 = all killed)
experimental setup: 10 µM unless noted
The panel holds about 83,000 compounds, 20% with a hit somewhere; the sample as a whole holds those more often.
readout label: growth (%)

| compound | readout label | unit info | observed value |
| --- | --- | --- | --- |
| O=c1[nH]c2ccccc2cc1-c1nc2ccncc2[nH]1 | growth | % | 82.5 |
| COc1ccc(-c2cc(C(=O)N3N=C(c4ccc(N)cc4)CC3c3ccc(OC)cc3)c3cc(OC)ccc3n2)cc1 (centres undefined) | growth | % | 58.1 |
| O=C1CC23OC(C(O)c4ccccc4N12)C1C(c2ccccc2)=NOC13 (centres undefined) | growth | % | 44 |
| CO[C@@]12C=C[C@@]34CCC(=O)N3c3ccccc3[C@@H](O1)C4C2 | growth | % | 99.1 |
| COc1cc(NCC(=O)Nc2cc(Nc3cccc(C(F)(F)F)c3)ncn2)c(Cl)c(OC)c1Cl | growth | % | 99.9 |
| NC(=O)CN1C(=O)c2ccccc2C1=O | growth | % | 98.4 |
| C=C1C(=O)O[C@H]2[C@H]1CC/C(COC(=O)N1CCC[C@H]1C(=O)Nc1ccc(OC)c(C(N)=O)c1O)=C\CC[C@@]1(C)O[C@@H]21 | growth | % | 60.5 |
| CCCCc1nc(Cl)c(C2CC(c3ccc(Cl)cc3)=NN2c2cc(Cl)cc(Cl)c2)[nH]1 (centres undefined) | growth | % | 93 |
| N#Cc1c(NC(=O)c2cccs2)[n+]([O-])c2cc(C(F)(F)F)ccc2[n+]1[O-] | growth | % | 106 |

----------
System: A549/ATCC NSCLC
assay details: NCI-60 one-dose screen, 48 h (100 = growth as untreated, 0 = no growth, -100 = all killed)
experimental setup: 10 µM unless noted
Compounds without any hit were thinned out: in the full panel of roughly 83,000, 20% have a hit.
Param label: returns y when growth < 50%, returns n otherwise, including exact equality.

| compound | class assignment |
| --- | --- |
| COc1cc(C2=NN(C(C)=O)C(c3cccc(Nc4ccnc5cc(C(F)(F)F)ccc45)c3)C2)cc(OC)c1OC (stereo not drawn) | n |
| C#CC[C@@H]1C[C@]2(C)[C@H]3CC[C@@H]4[C@H]5[C@H](C(=C)C)CC[C@]5(C(=O)O)CC[C@@]4(C)[C@]3(C)CC[C@H]2C(C)(C)[C@H]1O | y |
| COc1ccc(-c2nc(C#N)c(NCC(c3ccco3)N3CCCC3)o2)cc1 (stereo not drawn) | y |
| COc1ccc(-c2nnc(N3CCN(C(=O)CN4CCN(c5ccc(OC)cc5)CC4)CC3)nc2-c2ccc(OC)cc2)cc1 | n |
| O=C(NCc1ccccc1)c1ccc2c(c1)NC(=O)[C@@H]1CCCN21 | n |
| COC(=O)CCc1n(Cc2ccc3ccccc3c2)c2ccccc2[n+]1Cc1ccc2ccccc2c1 | y |
| CC(=O)OCC1SC(OC(C)=O)C(NC(=O)/C=C/CCl)C(OC(C)=O)C1OC(C)=O (stereo not drawn) | n |
| COc1ccc2[nH]c(-c3ccccc3)c(C=C(C#N)C#N)c2c1 | y |

----------
Tested on: LOX IMVI melanoma
assay details: NCI-60 one-dose screen, 48 h (100 = growth as untreated, 0 = no growth, -100 = all killed)
experimental setup: 10 µM unless noted
The panel holds about 83,000 compounds, 20% with a hit somewhere; the sample as a whole holds those more often.
Param label: returns criterion met when growth < 60%, returns criterion not met otherwise, including exact equality.

| compound | class assignment |
| --- | --- |
| O=C(CCc1nnco1)c1nc2ccc([N+](=O)[O-])cc2[nH]1 | criterion not met |
| CNc1cccc2c1C(=O)c1cccc(N)c1C2=O | criterion not met |
| COc1ccccc1C(=O)/C=C/c1cc2cccc(OC)c2[nH]c1=O | criterion met |
| O=C(/C(=C/c1ccc([N+](=O)[O-])cc1)SCc1ccc(Cl)cc1)c1ccc(F)cc1 | criterion met |
| C=C(C)[C@@H]1CCC=C2CC[C@]3(C)[C@H](CC[C@@H]4[C@@]5(C)CCCNC(C)(C)[C@@H]5CC[C@]43C)[C@H]21 | criterion met |
| N#Cc1c(-c2ccc(F)cc2)c(C#N)c2c(C#N)c(N)nn2c1N | criterion not met |
| O=C1CCC23OC(C(O)c4ccccc4N12)C1C(Br)=NOC13 (centres undefined) | criterion not met |
| Nc1c(C(=O)Nc2ccccn2)sc2nc3c(cc12)CCCCCC3 | criterion met |
| Cc1cccc(C)c1NCc1nnc(-c2ccco2)o1 | criterion not met |
| Cc1cc(O)cc(O)c1N=NC1=NCCS1 | criterion not met |
| Nc1ccc(C2=NN(C(=O)c3cc(-c4ccc(Cl)cc4)nc4ccccc34)C(c3ccccc3)C2)cc1 (centres undefined) | criterion met |
| COc1ccc(/C=C/C(=O)Nc2ncnc3nc[nH]c23)cc1 | criterion not met |
| Nc1c(C(=O)Nc2ccccc2)sc2nc3c(cc12)CN(C(=O)OCc1ccccc1)CC3 | criterion met |
| C=C1C(=O)O[C@H]2[C@H]1CC/C(COC(=O)NCc1nc3ccccc3[nH]1)=C\CC[C@@]1(C)O[C@@H]21 | criterion not met |
| C[C@@H]1C(=O)[C@@H]2C[C@@H](O)[C@@H](O)C[C@]2(C)[C@H]2CC[C@@]3(C)C(=C12)CC[C@@H]3[C@@](C)(O)[C@H](O)CCC(C)(C)O | criterion not met |
| Nc1n[nH]c2cccc(C#Cc3cccc(NC(=O)c4cc(N5CCOCC5)cc(C(F)(F)F)c4)c3)c12 | criterion met |
| CCC[S@@](=O)c1ccc2nc(NC(=O)OC)[nH]c2c1 | criterion not met |
| COc1cc2nc3c(=O)n(-c4ccc(C#N)cc4)cnn3c(=O)c2cc1OC | criterion not met |
| COC(=O)c1nc(-c2ccccc2)oc1S(=O)(=O)n1nc(-c2ccccc2)cc1N | criterion not met |
| C/C(=N\NC(=O)c1ccncc1)c1ccc(N)cc1 | criterion not met |
| C[C@]12CC[C@@H]3c4ccc(O)cc4CC[C@H]3[C@@H]1C[C@H](O)C2 | criterion not met |
| CC(C)CSc1nc(Nc2ccccc2)c(C#N)c(-c2ccc(F)cc2)n1 | criterion met |
| Cc1c(C(=O)Nc2nc3ccccc3[nH]2)cnn1-c1ccccn1 | criterion not met |
| NC(=O)C(O)(c1ccccc1)c1ccccc1 | criterion not met |
| COc1ccc2nc(-c3ccc(Cl)cc3)cc(-c3nnc(SC/C(=N/O)c4ccccc4)o3)c2c1 | criterion met |
| O=C1C(Cl)=C(NCCCN(CCCNC2=C(Cl)C(=O)c3ccccc3C2=O)C2=C(Cl)C(=O)c3ccccc3C2=O)C(=O)c2ccccc21 | criterion met |
| CC(=O)Nc1nc2c(c(N)c1C#N)C(c1cccc(Cl)c1)C1=C(CCCC1=O)N2c1sc2c(c1C#N)CCCC2 (centres undefined) | criterion met |
| C=C(C)[C@@H]1CC[C@]2(C(=O)N3CCN(C)CC3)CC[C@]3(C)[C@H](CC[C@@H]4[C@@]5(C)C/C(=C/c6ccco6)C(=O)C(C)(C)[C@@H]5CC[C@]43C)[C@@H]12 | criterion met |
| COc1ccc(-c2[nH]c3ccc(OC)cc3c2C=C(C#N)C#N)cc1 | criterion not met |
| Nc1c(C(=O)Nc2ccccn2)sc2nc3c(cc12)CCCCC3 | criterion met |
| CC(=O)Nc1ccc2c(c1)Cc1cc(F)ccc1-2 | criterion not met |
| COc1cc(/C=C/C(=O)/C=C/c2cc3ccc(Cl)cc3n(Cc3ccccc3)c2=O)ccc1O | criterion met |
| O=C(C[n+]1cccc2cc(Cl)ccc21)c1ccc2c(c1)CCCC2 | criterion met |
| COCCOCCOCc1n(Cc2ccc3ccccc3n2)c2ccccc2[n+]1Cc1ccc2ccccc2n1 | criterion met |
| C/C(=C\c1cnc(C)s1)[C@@H]1C[C@@H]2O[C@@H]2CCC[C@H](C)[C@H](O)[C@@H](C)C(=O)C(C)(C)[C@@H](O)CC(=O)O1 | criterion met |
| C=C1C(=O)O[C@H]2[C@H]1CC/C(COC(=O)/C=C/c1cccnc1)=C\CC[C@@]1(C)O[C@@H]21 | criterion met |
| COC(=O)c1ccc2c(c1)n(Cc1ccc3ccccc3c1)c[n+]2Cc1ccc2ccccc2c1 | criterion met |
| CCOC(=O)c1ccc(Nc2ncnc3ccc(NC(=O)c4ccccc4)cc23)cc1 | criterion not met |
